Cited source: patent US20240327535A1

Measured Kd by item
# tested system: T1, extracellular domain of rhesus monkey BCMA (rhesus monkey, UniProt F7FFA0 1-53)
# T1 construct: extracellular domain; also called RhBCMA
# T1 sequence (F7FFA0 entry or part of it): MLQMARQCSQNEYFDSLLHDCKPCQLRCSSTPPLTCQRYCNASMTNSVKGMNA
# procedure summary: Octet BLI; Fab 200 nM
experimental endpoint: Kd (nM)

[[record]]
binder = "AB200-R1a-Fab_VH24 (Fab, V domains shown) VH: QVQLVQSGAEVKKPGSSVKVSCKASGGTFTNYWMHWVRQAPGQGLEWMGATYRGHSNTYYNQKFKGRVTITADKSTSTAYMELSSLRSEDTAVYYCARGAIYHGYDVIDNWGQGTLVTVSS VL: DIQMTQSPSSLSASVGDRVTITCSATQDISNYLNWYQQKPGKAPKLLIYFTSNLQSGVPSRFSGSGSGTDFTLTISSLQPEDFATYYCQQYRKLPWTFGQGTKLEIKR"
experimental_endpoint = "Kd"
measured_number = 24.5

[[record]]
binder = "AB200-R1a-Fab_VH18 (Fab, V domains shown) VH: QVQLVQSGAEVKKPGSSVKVSCKASGGTFSNYWMHWVRQAPGQGLEWMGATYKGHSDTYYNQKFKGRVTITADESTSTAYMELSSLRSEDTAVYYCARGAIYHGYEVLDNWGQGTLVTVSS VL: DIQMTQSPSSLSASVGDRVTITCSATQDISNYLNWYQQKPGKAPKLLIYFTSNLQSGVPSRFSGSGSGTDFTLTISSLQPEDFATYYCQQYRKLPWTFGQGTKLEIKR"
experimental_endpoint = "Kd"
measured_number = 10.6

